Target: cruzain (Trypanosoma cruzi, UniProt P25779);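 also: at 5 µM compound concentration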
Sequence (P25779 123-337 limits assumed): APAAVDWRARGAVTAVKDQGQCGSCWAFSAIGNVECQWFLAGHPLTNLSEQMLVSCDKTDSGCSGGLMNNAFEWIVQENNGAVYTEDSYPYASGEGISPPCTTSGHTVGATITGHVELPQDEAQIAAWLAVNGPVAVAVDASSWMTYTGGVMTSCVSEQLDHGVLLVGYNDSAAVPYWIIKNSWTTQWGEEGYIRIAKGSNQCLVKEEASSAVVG
Test: biochemical
Conditions: 0’ (pre-incubation time); sheet "Screening results"
Method: Allison Doak and Prof. Brian Shoichet (University of California San Francisco, San Francisco, CA, USA) and Prof. Conor Caffrey (University of California San Diego, San Diego, CA, USA) generously provided recombinant cruzain and TbrCatL, respectively. In vitro activity of proteases cruzain and TbrCatL was assayed as previously described. Briefly, enzyme activity was measured by monitoring the cleavage of the fluorogenic substrate Z-Phe-Arg-amidomethylcoumarin (Z-FR-AMC) at 25 °C. […]
Observed property: Cruzain 0’ Inhibition (%)
Kindly answer with a numeric value in %, unit omitted.

Problem: Can you share its Cruzain 0’ Inhibition? I mean this compound: O=C(C1CCN(c2cc(-n3cccc3)ncn2)CC1)N1CCc2ccccc2C1
Result: -2.4

Problem: Now consider O=C(Nc1c(O)cccc1-c1nc2c(C(=O)O)cccc2o1)c1cc(-c2ccccc2)on1 .
Result: -3.3

Problem: Continue with CC(C)(C)n1nc(Cc2cccc3ccccc23)c2c(N)ncnc21
Result: 9

Problem: Also FC(F)(F)c1cccc(-c2nc3c(NCc4ccncc4)nccc3[nH]2)c1 , if possible.
Result: -4.6

Problem: Repeat with COC(=O)c1cccc2oc(-c3cccc(OC)c3NC(=O)c3cc(-c4ccccc4)on3)nc12
Result: -3.5

Problem: Entry Nc1ncnc2c1c(-c1cnc3ccccc3c1)nn2CC1CCNCC1 please
Result: -0.3

Problem: Do the same for Cc1nn(C)c(C)c1NS(=O)(=O)c1c(Cl)cc(-c2ccnc(N3CCNCC3)c2)cc1Cl please
Result: -4

Problem: Also O=C(Nc1ccc(N2CCNCC2)cc1)c1ccn2ncc(-c3cccc(Cl)c3)c2n1 ?
Result: 15

----------
Target: TbrCatL (Trypanosoma brucei rhodesiense, UniProt Q95PM0)
Construct: Conor Caffrey (University of California San Diego)
Sequence (Q95PM0 entry or part of it): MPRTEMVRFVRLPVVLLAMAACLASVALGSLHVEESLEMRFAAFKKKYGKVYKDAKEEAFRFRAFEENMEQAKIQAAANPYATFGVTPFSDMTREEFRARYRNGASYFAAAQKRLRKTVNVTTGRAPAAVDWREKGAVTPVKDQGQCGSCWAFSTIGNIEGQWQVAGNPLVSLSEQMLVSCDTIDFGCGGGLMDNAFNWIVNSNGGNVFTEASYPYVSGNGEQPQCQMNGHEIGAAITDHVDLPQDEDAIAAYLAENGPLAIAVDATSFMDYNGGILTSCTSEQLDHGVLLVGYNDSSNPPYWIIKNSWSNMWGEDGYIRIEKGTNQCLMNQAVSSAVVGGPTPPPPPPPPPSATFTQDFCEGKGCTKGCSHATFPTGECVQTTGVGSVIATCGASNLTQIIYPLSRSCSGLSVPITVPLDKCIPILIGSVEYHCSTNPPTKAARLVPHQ
Assay: TbrCatL enzymatic inhibition assay (cleavage of fluorogenic substrate Z-FR-AMC);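 also: at 5 µM compound concentration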
Format: biochemical
Details: 10’ (pre-incubation); sheet Screening results
Protocol: Allison Doak and Prof. Brian Shoichet (University of California San Francisco, San Francisco, CA, USA) and Prof. Conor Caffrey (University of California San Diego, San Diego, CA, USA) generously provided recombinant cruzain and TbrCatL, respectively. In vitro activity of proteases cruzain and TbrCatL was assayed as previously described. Briefly, enzyme activity was measured by monitoring the cleavage of the fluorogenic substrate Z-Phe-Arg-amidomethylcoumarin (Z-FR-AMC) at 25 °C. […]
Here, each record is paired with measured TbrCatL Inhibition 10’ data.
API: value field is a number in %; no unit string.

Look over these answered cases.
CO/C=C(\C(=O)OC)c1ccccc1Oc1cc(Oc2ccccc2C#N)ncn1; 9
O=C(Cn1ccnc1[N+](=O)[O-])NCc1ccccc1; 3.7
CC(=O)NC[C@H]1CN(c2ccc(N3CCSCC3)c(F)c2)C(=O)O1; 7
COc1ccc(CN2CCOc3ccc(C(C)(O)CN(C)C)cc3C2)cc1C (centres unmarked); -3.4
COc1ccc(C2=NN(C3CCCCCC3)C(=O)C2(C)C)cc1OCc1ccccn1; 16
CNc1snc(C)c1C(=O)NCCOc1ccc(OC)cc1; -8

Problem: Using the record for O=C(NCc1ccco1)N1CCN(Cc2ccc(Cl)s2)CC1 , report its TbrCatL Inhibition 10’.
Result: 0.9

Problem: Now this one: Cc1ccc(C(=O)Nc2ccc(S(=O)(=O)O)c3cc(S(=O)(=O)O)cc(S(=O)(=O)O)c23)cc1NC(=O)c1cccc(NC(=O)Nc2cccc(C(=O)Nc3cc(C(=O)Nc4ccc(S(=O)(=O)O)c5cc(S(=O)(=O)O)cc(S(=O)(=O)O)c45)ccc3C)c2)c1
Result: -0.2

----------
Target: TbrCatL (Trypanosoma brucei rhodesiense)
Construct: Conor Caffrey (University of California San Diego)
Assay: TbrCatL enzymatic inhibition assay (cleavage of fluorogenic substrate Z-FR-AMC);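 also: at 5 µM compound concentration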
Format: biochemical
Conditions: 0’ (pre-incubation time); sheet "Screening results"
Observed property: TbrCatL 0’ Inhibition (%)
Give your result in % as a bare value.

CCc1nc2ccc(C(=O)NCc3ccc4c(c3)OCO4)cn2c1N(C)Cc1cccs1 [MMV407539]; -10
COc1ccc(N(CCc2cccc(C)n2)C(C)=O)cc1 [MMV675995]; -3
O=C(Nc1ccc(F)c(-c2nc3ncc(-c4ccccc4)cc3[nH]2)c1)N1CCCC1 [MMV688372]; -5

Problem: Value lookup for TbrCatL 0’ Inhibition; key = O=C(OCc1ccccc1)N1CCC(c2cc(-c3ccncc3)c(-c3ccc(F)cc3)[nH]2)CC1 [MMV688509]
Result: -13

Problem: Now try CCOc1ccc(OCC(=O)Nc2cc(C)cc(C)c2)cc1 [MMV676470] .
Result: -0.9

Problem: Request: C[C@@H]1[C@H](O)[C@@H](C)/C=C/C=C/C=C/C=C/C=C/C=C/C=C/[C@H](O[C@@H]2O[C@H](C)[C@@H](O)[C@H](N)[C@@H]2O)C[C@@H]2O[C@](O)(C[C@@H](O)C[C@@H](O)[C@H](O)CC[C@@H](O)C[C@@H](O)CC(=O)O[C@H]1C)C[C@H](O)[C@H]2C(=O)O [MMV689000]
Result: 11

Problem: Now this one: Nc1ncc(Br)cc1-c1nc2cc(Cl)cnc2[nH]1 [MMV676358]
Result: -9

----------
Biological target: cruzain (Trypanosoma cruzi);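 also: at 5 µM compound concentration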
Experiment: biochemical
Conditions: 0’ (pre-incubation time); sheet "Screening results"
Observed property: Cruzain 0’ Inhibition
Include the unit right after the number.

Cc1nc(-c2cccc(NCc3ccccc3)c2)[nH]c1C [MMV023227]; 2%
CCCCN(CCCC)c1c(C#N)cc(S(=O)(=O)Nc2ccccc2)cc1C#N [MMV688467]; -2.2%

Problem: Look up Cruzain 0’ Inhibition: CCN(CC)CCCN1CCN(C(=O)c2cccc(-c3noc(C(F)(F)F)n3)c2)CC1 [MMV022236]
Result: 7%

Problem: Now give it for CN1CCN(c2nccc3nc(-c4ccc(F)c(F)c4)[nH]c23)CC1 [MMV676260] too.
Result: -9%

Problem: Same lookup for COc1ccc(S(=O)(=O)Nc2ccc(CN3CCN(C(=O)c4cccc(C#N)c4)CC3)cc2)cc1 [MMV689029] , please.
Result: 2.5%

----------
Biological target: cruzain (Trypanosoma cruzi);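 also: at 5 µM compound concentration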
Experiment: biochemical
Details: 0’ (pre-incubation time); sheet "Screening results"
Method: Allison Doak and Prof. Brian Shoichet (University of California San Francisco, San Francisco, CA, USA) and Prof. Conor Caffrey (University of California San Diego, San Diego, CA, USA) generously provided recombinant cruzain and TbrCatL, respectively. In vitro activity of proteases cruzain and TbrCatL was assayed as previously described. Briefly, enzyme activity was measured by monitoring the cleavage of the fluorogenic substrate Z-Phe-Arg-amidomethylcoumarin (Z-FR-AMC) at 25 °C. […]
Observed property: Cruzain 0’ Inhibition
Give the value; after it, write the unit.

Reference set, count: 3
Cc1ccc(S(=O)(=O)n2cc(-c3ccnc(N)c3)c3cc(Br)cnc32)cc1 [MMV024114]; -9%
CCCCc1ccc(NC(=O)Nc2ccc(O[C@H]3CCCC[C@@H]3N(C)c3ccccc3)c(F)c2)cc1 [MMV676063]; -13%
CC(C(=O)N1CCCC1)N1CCN(S(=O)(=O)c2ccc(C(C)(C)C)cc2)CC1 (centres unmarked) [MMV020291]; 2.5%

Problem: Recorded Cruzain 0’ Inhibition for O=C(NCCc1ccccc1)c1cc(-c2cccnc2)cnc1NCC1CC1 [MMV026490] , please?
Result: -1.3%

Problem: # repeat for Cc1cc(C)nc(-n2nc(C)cc2Nc2ccccc2)n1 [MMV062221]
Result: -21%

----------
Target: UniProt:P25779
Experiment: biochemical
Conditions: 10’ (pre-incubation time); sheet "Screening results"
# Cruzain 10’ Inhibition listing for each entry below
Please reply with the bare figure in % and do not write the unit itself.

Solved entries:
COc1cc(NC(=O)Cc2nn(C)c(=O)c3ccccc23)ccc1Cl; 1.7
COc1ccc(N(CCc2cccc(C)n2)C(C)=O)cc1; 1.9
COc1cc(CN2CCC3(C=Cc4ccccc43)CC2)cc2c1OCO2; 6
CS(=O)(=O)N1CCC(Cn2nc(Cc3cccc4ccccc34)c3c(N)ncnc32)CC1; 8
FC(F)(F)c1cnc(Sc2nnc(-c3ccncc3)o2)c(Cl)c1; -0.5

Problem: Given the entry CCN(CC)CCCN1CCN(C(=O)c2cccc(-c3noc(C(F)(F)F)n3)c2)CC1 , what Cruzain 10’ Inhibition was observed with UniProt:P25779?
Result: 16

Problem: Now give it for CCN(CC)C(=O)N1CCN(C)CC1 too.
Result: 1.9

----------
Some compounds, each annotated with its measured TbrCatL Inhibition 0’.
Target: TbrCatL (Trypanosoma brucei rhodesiense)
Construct: Conor Caffrey (University of California San Diego)
Assay: TbrCatL enzymatic inhibition assay (cleavage of fluorogenic substrate Z-FR-AMC);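 also: at 5 µM compound concentration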
Format: biochemical
Settings: 0’ (no pre-incubation); sheet Screening results

Problem: // TbrCatL Inhibition 0’ lookup, key: Cc1cc2nc(NC(=O)C(C)(C)C)nc(Cl)c2n1Cc1ccc(Cl)cc1
Result: 16%

Problem: // repeat for Nc1c2c(nc3sc4c(c13)CCCC4)CCCC2 and report
Result: 14%

Problem: Quick one: Cc1ccc(C(=O)Nc2ccc(S(=O)(=O)O)c3cc(S(=O)(=O)O)cc(S(=O)(=O)O)c23)cc1NC(=O)c1cccc(NC(=O)Nc2cccc(C(=O)Nc3cc(C(=O)Nc4ccc(S(=O)(=O)O)c5cc(S(=O)(=O)O)cc(S(=O)(=O)O)c45)ccc3C)c2)c1
Result: -4.4%

Problem: What would you report for CCc1c(C)nc(-n2nc(C)cc2NC(=O)c2ccccc2SC)[nH]c1=O ?
Result: -4%

Problem: Record: CO/C=C(\C(=O)OC)c1ccccc1Oc1cc(Oc2ccccc2C#N)ncn1
Result: 1.9%

Problem: Now consider CC(C)c1ncc(-c2ccncc2)c(C2CCC(CNC(=O)c3cccnc3)CC2)n1 (stereo not shown) .
Result: -7.5%

Problem: What about Cc1ccc(Oc2ccc(NC(=O)CNc3ccccc3N3CCCC3=O)cc2)cc1 ?
Result: -3.2%
